- experiment summary: AUC (0 to infinity) in male Sprague-Dawley rat at 10 mg/kg, iv administered as single dose by LC-MS analysis
- Format: ADME, organism-based
- Set-up: time infinity, route intravenous, dose 10 mg/kg
- test parameters: in vivo
quantity name: AUC(0-inf) (ng·h/mL)
The answer is to be given in ng·h/mL; state only the numeric part.

# lookup: AUC(0-inf) of `Cc1nc(-c2cccc(C#N)c2)n(OCc2ccc(C#N)cc2)c1C(=O)O`
3500

====

Give inhibition at 2 h, 10 µM for every item shown.
- tested system: CYP2C9 (Homo sapiens, UniProt P11712)
- Sequence (P11712 whole entry): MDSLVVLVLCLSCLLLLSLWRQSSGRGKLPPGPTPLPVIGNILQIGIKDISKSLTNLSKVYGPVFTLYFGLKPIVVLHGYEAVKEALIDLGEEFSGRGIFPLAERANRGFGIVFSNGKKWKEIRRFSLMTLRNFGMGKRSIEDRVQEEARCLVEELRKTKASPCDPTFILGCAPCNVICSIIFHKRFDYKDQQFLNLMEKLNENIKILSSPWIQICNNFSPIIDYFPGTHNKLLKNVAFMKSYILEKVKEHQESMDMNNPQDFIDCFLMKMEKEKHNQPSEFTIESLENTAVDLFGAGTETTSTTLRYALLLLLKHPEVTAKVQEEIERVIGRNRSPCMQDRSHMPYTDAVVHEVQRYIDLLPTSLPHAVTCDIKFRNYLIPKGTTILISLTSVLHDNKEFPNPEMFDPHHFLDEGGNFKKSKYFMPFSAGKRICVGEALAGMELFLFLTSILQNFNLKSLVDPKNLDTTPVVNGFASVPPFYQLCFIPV
- experiment summary: Inhibition of CYP2C9 in human liver microsomes at 10 uM using tolbutamide as substrate preincubated for 5 mins followed by NADPH generating system addition and measured after 120 mins by LC-MS/MS analysis relative to control
- Assay type: ADME
- test parameters: probe tolbutamide, time 125 min
Output should be the measured figure followed by the unit it is expressed in.

# lookup: inhibition at 2 h, 10 µM of `CCOC(=O)c1c(C)nc(-c2cccc(C#N)c2)n1OCc1ccc(C#N)cc1`
0.024%

# lookup: inhibition at 2 h, 10 µM of `Cc1nc(-c2cccc(C#N)c2)n(OCc2ccc(C#N)cc2)c1C(=O)O`
0.41%

====

pIC50: −log10 of the molar value.
quantity name: pIC50

Provide value of pIC50 for this record tested with UniProtKB P10635: `Cc1nc(-c2cccc(C#N)c2)n(OCc2ccc(C#N)cc2)c1C(=O)O`
Sequence (P10635 whole entry): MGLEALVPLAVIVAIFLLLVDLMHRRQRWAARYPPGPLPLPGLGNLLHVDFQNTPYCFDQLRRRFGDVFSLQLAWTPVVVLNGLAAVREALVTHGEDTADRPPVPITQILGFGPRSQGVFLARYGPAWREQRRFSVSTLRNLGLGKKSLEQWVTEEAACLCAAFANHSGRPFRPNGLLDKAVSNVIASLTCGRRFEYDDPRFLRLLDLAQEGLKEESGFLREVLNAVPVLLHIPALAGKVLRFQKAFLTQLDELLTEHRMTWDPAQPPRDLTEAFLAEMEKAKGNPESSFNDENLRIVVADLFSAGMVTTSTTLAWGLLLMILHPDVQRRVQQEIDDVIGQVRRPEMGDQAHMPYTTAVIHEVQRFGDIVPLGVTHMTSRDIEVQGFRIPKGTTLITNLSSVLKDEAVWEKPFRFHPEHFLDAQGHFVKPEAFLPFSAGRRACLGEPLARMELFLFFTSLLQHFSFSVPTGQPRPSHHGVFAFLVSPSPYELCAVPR
< 5.00

====

- experiment summary: Clearance in male Sprague-Dawley rat at 10 mg/kg, po administered as single dose by LC-MS analysis
- Assay type: ADME, organism-based
- test parameters: in vivo
Give CL/F for every item shown.
The answer is to be given in mL/min/kg; state only the numeric part.

# lookup: CL/F of `CCOC(=O)c1c(C)nc(-c2cccc(C#N)c2)n1OCc1ccc(C#N)cc1`
207

# lookup: CL/F of `Cc1nc(-c2cccc(C#N)c2)n(OCc2ccc(C#N)cc2)c1C(=O)O`
261

====

- experiment summary: Clearance in male Sprague-Dawley rat at 10 mg/kg, iv administered as single dose by LC-MS analysis
- Type: ADME, organism-based
- test parameters: in vivo
quantity name: clearance (mL/min/kg)
The answer is to be given in mL/min/kg; state only the numeric part.

# lookup: clearance of `Cc1nc(-c2cccc(C#N)c2)n(OCc2ccc(C#N)cc2)c1C(=O)O`
50.5

====

Give inhibition at 2 h, 10 µM for every item shown.
- tested system: CYP1A2 (Homo sapiens)
- Sequence (P05177 whole entry): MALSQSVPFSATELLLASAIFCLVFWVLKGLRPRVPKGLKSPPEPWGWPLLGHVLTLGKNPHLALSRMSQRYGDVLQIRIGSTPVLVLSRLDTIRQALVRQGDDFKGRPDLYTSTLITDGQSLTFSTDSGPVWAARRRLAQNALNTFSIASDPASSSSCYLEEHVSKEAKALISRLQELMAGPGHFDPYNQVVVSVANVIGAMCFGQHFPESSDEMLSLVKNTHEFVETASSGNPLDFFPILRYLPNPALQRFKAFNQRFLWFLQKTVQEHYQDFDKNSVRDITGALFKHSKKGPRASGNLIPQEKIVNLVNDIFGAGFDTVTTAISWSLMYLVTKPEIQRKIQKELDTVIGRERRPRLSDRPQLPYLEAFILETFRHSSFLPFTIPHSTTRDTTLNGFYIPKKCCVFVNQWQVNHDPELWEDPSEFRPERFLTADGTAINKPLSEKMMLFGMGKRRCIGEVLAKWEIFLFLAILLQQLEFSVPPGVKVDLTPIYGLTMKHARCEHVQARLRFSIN
- experiment summary: Inhibition of CYP1A2 in human liver microsomes at 10 uM using phenacetin as substrate preincubated for 5 mins followed by NADPH generating system addition and measured after 120 mins by LC-MS/MS analysis relative to control
- Assay type: ADME
- test parameters: probe phenacetin, time 125 min
The answer is to be given in %; state only the numeric part.

# lookup: inhibition at 2 h, 10 µM of `Cc1nc(-c2cccc(C#N)c2)n(OCc2ccc(C#N)cc2)c1C(=O)O`
0.11

# lookup: inhibition at 2 h, 10 µM of `CCOC(=O)c1c(C)nc(-c2cccc(C#N)c2)n1OCc1ccc(C#N)cc1`
3.85
